- SYSTEM: EGFR (d746-750 (d19)/T790M) (Homo sapiens (Human), UniProt P00533, DEL746-750/T790M)
- Sequence (P00533 other isoform, or with tags, fused parts or gaps T790M/del 1-668/del 746-750 limits assumed): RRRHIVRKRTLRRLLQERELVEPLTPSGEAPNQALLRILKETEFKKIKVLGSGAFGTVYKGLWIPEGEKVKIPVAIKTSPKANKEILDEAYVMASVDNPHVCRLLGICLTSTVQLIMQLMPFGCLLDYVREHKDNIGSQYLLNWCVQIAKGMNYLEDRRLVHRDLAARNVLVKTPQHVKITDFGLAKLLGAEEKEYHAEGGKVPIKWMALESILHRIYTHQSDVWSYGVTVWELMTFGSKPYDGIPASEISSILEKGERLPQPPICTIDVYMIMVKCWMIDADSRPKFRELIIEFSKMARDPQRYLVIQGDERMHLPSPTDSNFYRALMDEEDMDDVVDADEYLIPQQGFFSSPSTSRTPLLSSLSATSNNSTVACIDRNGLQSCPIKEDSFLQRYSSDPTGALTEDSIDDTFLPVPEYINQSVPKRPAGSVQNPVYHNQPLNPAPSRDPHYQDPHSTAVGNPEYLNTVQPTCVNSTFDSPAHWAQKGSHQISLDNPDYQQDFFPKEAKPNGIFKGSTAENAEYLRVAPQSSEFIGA
- ASSAY_DETAILS: Inhibitory activity for EGFR (d746-750 (d19)/T790M) kinase
- CONDITION_SET: ATP 5 μM
Please go through the items and note down their IC50.
Kindly format the answer as number then unit.

For orientation, consider the following solved cases.
{"columns": ["COMPOUND", "REPORTED"],
 "data": [
  ["Cc1cc2cc(n1)-c1cnn(C)c1OCCC[C@@H](C1CC1)CN1/C(=N/C2=O)Nc2ccc(NC3CCN(C(C)C)CC3)cc21", "0.013 nM"],
  ["Cc1cc2cc(n1)-c1cnn(C)c1OCCC[C@@H](C1CC1)CN1/C(=N/C2=O)Nc2cc(NCCCN3CCCC3)ccc21", "0.013 nM"],
  ["Cc1cc2cc(n1)-c1cnn(C)c1OCCC[C@@H](C1CC1)CN1/C(=N/C2=O)Nc2ccc(OCCN(C)C)cc21", "0.025 nM"],
  ["Cc1cc2cc(n1)-c1cnn(C)c1OCCC[C@@H](C1CC1)CN1/C(=N/C2=O)Nc2ccc(NCCN)cc21", "0.0094 nM"]
]}

Count: 4. Required value per item: IC50.
1. Cc1cc2cc(n1)-c1cnn(C)c1OCCC[C@@H](C1CC1)CN1/C(=N/C2=O)Nc2cc(NC(C)CN(C)C)ccc21 (stereo partly shown)
2. Cc1cc2cc(n1)-c1cnn(C)c1OCCC[C@@H](C1CC1)CN1/C(=N/C2=O)Nc2cc(NC(C)C3COC3)ccc21 (stereo partly shown)
3. Cc1cc2cc(n1)-c1cnn(C)c1OCCC[C@@H](C1CC1)CN1/C(=N/C2=O)Nc2cc(NCCCN(C)C)ccc21
4. Cc1cc2cc(n1)-c1cnn(C)c1OCCC[C@@H](C1CC1)CN1/C(=N/C2=O)Nc2cc(NC3C(C)(C)OC3(C)C)ccc21

Resp:
0.013 nM
0.013 nM
0.0081 nM
0.018 nM

Provide each entry's IC50 from the list below.
1. Cc1cc2cc(n1)-c1cnn(C3CC3)c1OCCC[C@@H](C)CN1/C(=N/C2=O)Nc2cc(NCCN3CCOCC3)ccc21
2. Cc1cc2cc(n1)-c1cnn(C)c1OCCC[C@@H](C1CC1)CN1/C(=N/C2=O)Nc2cc(NC3CCN(C(C)C)CC3)ccc21

Resp:
0.05 nM
0.017 nM

====

- ASSAY_DETAILS: In vivo pharmacokinetics in ICR mice
- CONDITION_SET: mouse, plasma, 1 mg/kg, IV
Provide the recorded AUC(0-inf) for the entries that follow.
Answers are plain numbers, in ng·h/mL.

{"columns": ["COMPOUND", "AUC(0-inf), ng·h/mL"],
 "data": [
  ["Cc1cc2cc(n1)-c1cnn(C)c1OCCC[C@@H](C1CC1)CN1/C(=N/C2=O)Nc2ccc(N(C)C3CCN(C)CC3)cc21 [Example 117]", 286],
  ["Cc1cc2cc(n1)-c1cnn(C)c1OCCC[C@@H](C1CC1)CN1/C(=N/C2=O)Nc2ccc(NCCN(C)C)cc21 [Example 28]", 341],
  ["Cc1cc2cc(n1)-c1cnn(C)c1OCCC[C@@H](C1CC1)CN1/C(=N/C2=O)Nc2ccc(N[C@H]3C[C@H](N(C)C)C3)cc21 [Example 128]", 221],
  ["Cc1cc2cc(n1)-c1cnn(C)c1OCCC[C@@H](C1CC1)CN1/C(=N/C2=O)Nc2cc(NC3(C)COC3)ccc21 [Example 29]", 850],
  ["Cc1cc2cc(n1)-c1cnn(C)c1OCCC[C@@H](C1CC1)CN1/C(=N/C2=O)Nc2cc(NCCCN3CCOCC3)ccc21 [Example 74]", 236]
]}

Req: Query: AUC(0-inf); subject: CCC1(Nc2ccc3c(c2)N/C2=N\C(=O)c4cc(C)nc(c4)-c4cnn(C)c4OCCC[C@@H](C4CC4)CN23)COC1 [Example 90]
Resp: 441

====

- ASSAY_DETAILS: In vivo pharmacokinetics in ICR mice
- CONDITION_SET: mouse, plasma, PO, 10 mg/kg intragastric, read-out: AUC(0-t)
Criterion: AUC(0-t) strictly under 900 ng·h/mL. Met: Satisfied. Not met: Not satisfied.

{"columns": ["COMPOUND", "GROUP"],
 "data": [
  ["Cc1cc2cc(n1)-c1cnn(C)c1OCCC[C@@H](C1CC1)CN1/C(=N/C2=O)Nc2cc(N[C@@H](C)CN(C)C)ccc21", "Not satisfied"],
  ["Cc1cc2cc(n1)-c1cnn(C)c1OCCC[C@@H](C1CC1)CN1/C(=N/C2=O)Nc2ccc(NCCN(C)C)cc21", "Not satisfied"],
  ["Cc1cc2cc(n1)-c1cnn(C)c1OCCC[C@@H](C1CC1)CN1/C(=N/C2=O)Nc2cc(NCCCN3CCCCC3)ccc21", "Not satisfied"],
  ["CCC1(Nc2ccc3c(c2)N/C2=N\\C(=O)c4cc(C)nc(c4)-c4cnn(C)c4OCCC[C@@H](C4CC4)CN23)COC1", "Not satisfied"],
  ["Cc1cc2cc(n1)-c1cnn(C)c1OCCC[C@@H](C1CC1)CN1/C(=N/C2=O)Nc2cc(NCCCN3CCOCC3)ccc21", "Satisfied"]
]}

Req: Just wondering, is AUC(0-t) of `Cc1cc2cc(n1)-c1cnn(C)c1OCCC[C@@H](C1CC1)CN1/C(=N/C2=O)Nc2ccc(N[C@H]3C[C@H](N(C)C)C3)cc21` below 900 ng·h/mL?
Resp: Satisfied

====

- ASSAY_DETAILS: In vivo pharmacokinetics in ICR mice
- CONDITION_SET: mouse, plasma, PO, 10 mg/kg intragastric, read-out: T½ (converted)
Kindly supply the reported half-life values for the records listed here.
One number for each entry, in h.

Observe how each entry below is paired with its result.
{"columns": ["COMPOUND", "MEASURE_UNIT", "half-life"],
 "data": [
  ["Cc1cc2cc(n1)-c1cnn(C)c1OCCC[C@@H](C1CC1)CN1/C(=N/C2=O)Nc2cc(NC3(C)COC3)ccc21 [Example 29]", "h", 3.06],
  ["Cc1cc2cc(n1)-c1cnn(C)c1OCCC[C@@H](C1CC1)CN1/C(=N/C2=O)Nc2cc(N[C@@H](C)CN(C)C)ccc21 [Example 68]", "h", 3.04],
  ["Cc1cc2cc(n1)-c1cnn(C)c1OCCC[C@@H](C1CC1)CN1/C(=N/C2=O)Nc2ccc(NCCN(C)C)cc21 [Example 28]", "h", 4.29],
  ["Cc1cc2cc(n1)-c1cnn(C)c1OCCC[C@@H](C1CC1)CN1/C(=N/C2=O)Nc2cc(NCCCN3CCCCC3)ccc21 [Example 71]", "h", 4.5]
]}

For every listed record, write down its half-life.
1. CCC1(Nc2ccc3c(c2)N/C2=N\C(=O)c4cc(C)nc(c4)-c4cnn(C)c4OCCC[C@@H](C4CC4)CN23)COC1 [Example 90]
2. Cc1cc2cc(n1)-c1cnn(C)c1OCCC[C@@H](C1CC1)CN1/C(=N/C2=O)Nc2cc(NCCCN3CCOCC3)ccc21 [Example 74]

Resp:
2.46
3.18

====

- ASSAY_DETAILS: In vitro stability in liver microsomes
- Format: in vitro ADME
- CONDITION_SET: Human liver microsome
PROPERTY: Stability in liver microsomes (residual %, T = 60 min) (%)
Answers are plain numbers, in %.

Take a look at these entries with their results.
{"columns": ["COMPOUND", "REPORTED"],
 "data": [
  ["Cc1cc2cc(n1)-c1cnn(C)c1OCCC[C@@H](C1CC1)CN1/C(=N/C2=O)Nc2cc(N[C@H]3CC[C@H](N(C)C)CC3)ccc21", 103.07],
  ["[2H]C([2H])([2H])N(C[C@H](C)Nc1ccc2c(c1)N/C1=N/C(=O)c3cc(C)nc(c3)-c3cnn(C)c3OCCC[C@@H](C3CC3)CN12)C([2H])([2H])[2H]", 77.10],
  ["Cc1cc2cc(n1)-c1cnn(C)c1OCCC[C@@H](C1CC1)CN1/C(=N/C2=O)Nc2cc(NC3CN(C)C3)ccc21", 83.39],
  ["Cc1cc2cc(n1)-c1cnn(C)c1OCCC[C@@H](C1CC1)CN1/C(=N/C2=O)Nc2cc(N[C@H]3CC[C@@H](N(C)C)C3)ccc21", 95.64]
]}

Lab note: next molecule to report on.
Req: Param item = `Cc1cc2cc(n1)-c1cnn(C)c1OCCC[C@@H](C1CC1)CN1/C(=N/C2=O)Nc2cc(N[C@@H]3CC[C@H](N(C)C)C3)ccc21` ; retrieve measured Stability in liver microsomes (residual %, T = 60 min).
Resp: 95.34

====

- SYSTEM: EGFR (d746-750/T790M/C797S) (Homo sapiens (Human), UniProt P00533, C797S/DEL746-750/T790M)
- Sequence (P00533 other isoform, or with tags, fused parts or gaps T790M/C797S/del 1-694/del 746-750 limits assumed): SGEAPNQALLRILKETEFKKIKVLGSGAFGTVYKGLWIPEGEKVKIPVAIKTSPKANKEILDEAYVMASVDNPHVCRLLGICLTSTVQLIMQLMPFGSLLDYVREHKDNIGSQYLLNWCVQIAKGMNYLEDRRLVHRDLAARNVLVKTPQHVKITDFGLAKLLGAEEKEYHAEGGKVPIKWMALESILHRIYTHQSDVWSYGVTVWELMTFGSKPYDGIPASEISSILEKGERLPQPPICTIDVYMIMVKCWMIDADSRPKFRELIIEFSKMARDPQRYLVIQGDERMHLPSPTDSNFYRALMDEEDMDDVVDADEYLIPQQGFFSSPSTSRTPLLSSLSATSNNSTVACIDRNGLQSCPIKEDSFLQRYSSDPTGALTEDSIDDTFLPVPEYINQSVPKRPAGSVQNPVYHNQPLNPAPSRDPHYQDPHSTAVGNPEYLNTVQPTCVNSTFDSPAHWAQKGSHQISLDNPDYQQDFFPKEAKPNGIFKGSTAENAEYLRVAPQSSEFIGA
- ASSAY_DETAILS: Inhibitory activity for EGFR (d746-750/T790M/C797S) kinase
- CONDITION_SET: ATP 5 μM; read-out: EGFR(d19/T790M/C797S) (IC50)
PROPERTY: log10 of IC50 (log10 of the value in nM)
A difference of one corresponds to tenfold IC50; all values are log10 with IC50 in nM.

Reference set (5 entries):
{"columns": ["COMPOUND", "log10 of IC50"],
 "data": [
  ["CCN1CCC(Nc2ccc3c(c2)N2C[C@H](C4CC4)CCCOc4c(cnn4C)-c4cc(cc(C)n4)C(=O)/N=C/2N3)CC1", -1.70],
  ["Cc1cc2cc(n1)-c1cnn(C)c1OCCC[C@@H](C1CC1)CN1/C(=N/C2=O)Nc2ccc(C=CCCN(C)C)cc21", -1.68],
  ["Cc1cc2cc(n1)-c1cnn(C)c1OCCC[C@@H](C1CC1)CN1/C(=N/C2=O)Nc2cc(NC3(C(F)(F)F)COC3)ccc21", -0.74],
  ["Cc1cc2cc(n1)-c1cnn(C)c1OCCC[C@@H](C1CC1)CN1/C(=N/C2=O)Nc2ccc(NC3CCN(C)CC3)cc21", -1.70],
  ["Cc1cc2cc(n1)-c1cnn(C)c1OCCC[C@@H](C1CC1)CN1/C(=N/C2=O)Nc2cc(N[C@H]3CC[C@@H](N(C)C)CC3)ccc21", -1.77]
]}

Give me log10 of IC50 for each of these molecules, listed below.
1. Cc1cc2cc(n1)-c1cnn(C3CC3)c1OCCC[C@@H](C)CN1/C(=N/C2=O)Nc2ccc(NCCN(C)C)cc21
2. Cc1cc2cc(n1)-c1cnn(C)c1OCCC[C@@H](C1CC1)CN1/C(=N/C2=O)Nc2ccc(NCCN)cc21
3. Cc1cc2cc(n1)-c1cnn(C)c1OCCC[C@@H](C1CC1)CN1/C(=N/C2=O)Nc2ccc(N[C@@H]3CC[C@H](N(C)C)C3)cc21
4. Cc1cc2cc(n1)-c1cnn(C)c1OCCC[C@@H](C1CC1)CN1/C(=N/C2=O)Nc2cc(N[C@H]3CC[C@H](N(C)C)C3)ccc21
5. Cc1cc2cc(n1)-c1cnn(C)c1OCCC[C@@H](C1CC1)CN1/C(=N/C2=O)Nc2ccc(NCCN3CCCC3)cc21

Resp:
-1.85
-1.82
-1.16
-1.21
-1.70

Return reported log10 of IC50 values for all items listed beneath this line.
1. Cc1cc2cc(n1)-c1cnn(C)c1OCCC[C@@H](C1CC1)CN1/C(=N/C2=O)Nc2ccc(N[C@H](C)CN3CCCCC3)cc21
2. CNCCCNc1ccc2c(c1)N/C1=N\C(=O)c3cc(C)nc(c3)-c3cnn(C)c3OCCC[C@@H](C3CC3)CN12
3. Cc1cc2cc(n1)-c1cnn(C)c1OCCC[C@@H](C1CC1)CN1/C(=N/C2=O)Nc2ccc(N3CC[C@H](O)C3)cc21

Resp:
[-1.14, -1.41, -1.23]

src = patent US20250034165A1
